Data origin, for the record: paper PMC7826789

- Tested on: YSK4;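 also: KINOMEscan scanMAX binding as percent activity remaining versus control; lower means stronger binding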
- Construct: gene MAP3K19
- Test parameters: Compound Concentration (nM):1000
Listed below: Percent Control values for each entry.
Respond with the bare value in %.

Compound: COc1ccc2cc(-c3c(-c4ccncc4)nc(-c4ccc(S(C)(=O)=O)cc4C)n3C)ccc2c1
Unit abbrev: %
Percent Control: 66
//
Compound: O=C(Nc1n[nH]c2nc(-c3ccc(O)cc3)c(Br)cc12)C1CC1
Unit abbrev: %
Percent Control: 4.3
//
Compound: COc1cc2ncn(-c3cc(O[C@H](C)c4ccccc4Cl)c(C(N)=O)s3)c2cc1OC [GSK237701A]
Unit abbrev: %
Percent Control: 5.6

Turning now to a further compound:
Record summary for Nc1ncnc2occ(-c3ccc(NC(=O)Nc4cc(C(F)(F)F)ccc4F)cc3)c12 [GW770249X] : reported Percent Control = 0.1
